Origin of the recorded values: ChEMBL document CHEMBL5126581

testedSystem: Carbonic anhydrase 2 (Homo sapiens, UniProt P00918)
assayComment: Inhibition of recombinant human carbonic anhydrase 2 assessed as inhibition constant incubated for 1 hr prior to testing by phenol red based stopped-flow CO2 hydration assay
measuredAttribute: Ki

Here are 3 compounds together with their reported answers.
[
  {
    "entrySmiles": "COc1ccc(CNC2=NS(=O)(=O)c3cc(Cl)ccc3N2)cc1",
    "measuredAttribute": "Ki",
    "observedMeasurement": "> 100 µM"
  },
  {
    "entrySmiles": "COc1ccc(CCNC2=NS(=O)(=O)c3cc(F)ccc3N2)cc1",
    "measuredAttribute": "Ki",
    "observedMeasurement": "> 100 µM"
  },
  {
    "entrySmiles": "O=S1(=O)N=C(NCc2ccc(OC(F)(F)F)cc2)Nc2ccc(Br)cc21",
    "measuredAttribute": "Ki",
    "observedMeasurement": "> 100 µM"
  }
]

# context switch: different compound, same Ki
Which measured Ki value corresponds to `NS(=O)(=O)c1ccc(CCNC2=NS(=O)(=O)c3ccc(Cl)cc3N2)cc1` ?
0.0088 µM

* * *

Property: IC50 at 72 h; scope: individual molecules
assayComment: Cytotoxicity against HEK293 cells assessed as inhibition of cell growth incubated for 72 hrs by MTS assay
Type: toxicity, cell-based
setupConditions: human
Unit µM implied. Number only.

Here are 2 molecules together with their reported answers.
[
  {
    "entrySmiles": "O=S1(=O)N=C(NCc2ccc(F)cc2F)Nc2ccc(Cl)cc21",
    "measuredAttribute": "IC50 at 72 h",
    "observedMeasurement": 58.9
  },
  {
    "entrySmiles": "CNC(=O)c1cc(Oc2ccc(NC(=O)Nc3ccc(Cl)c(C(F)(F)F)c3)cc2)ccn1",
    "measuredAttribute": "IC50 at 72 h",
    "observedMeasurement": 2.95
  }
]

Which measured IC50 at 72 h value corresponds to `O=S1(=O)N=C(NCCCc2ccccc2)Nc2cc(Cl)ccc21` ?
111

Which measured IC50 at 72 h value corresponds to `O=S1(=O)N=C(NCc2ccccc2OC(F)(F)F)Nc2cc(Cl)ccc21` ?
30.5

Which measured IC50 at 72 h value corresponds to `O=S1(=O)N=C(NCCCCc2ccccc2)Nc2ccc(Cl)cc21` ?
23.4

Which measured IC50 at 72 h value corresponds to `O=S1(=O)N=C(NCc2ccc(OC(F)(F)F)cc2)Nc2cc(Cl)ccc21` ?
77.2

Which measured IC50 at 72 h value corresponds to `CCCCCC(=O)c1c(O)nc(OC)c(OC)c1O` ?
25.9

Which measured IC50 at 72 h value corresponds to `O=S1(=O)N=C(NCc2ccccc2)Nc2cc(Cl)ccc21` ?
102

Which measured IC50 at 72 h value corresponds to `O=S1(=O)N=C(NCCCc2ccccc2)Nc2ccc(Cl)cc21` ?
30.9

Which measured IC50 at 72 h value corresponds to `O=S1(=O)N=C(NCc2ccc(F)cc2F)Nc2cc(Cl)ccc21` ?
129

* * *

testedSystem: Vascular endothelial growth factor receptor 2 (Homo sapiens, UniProt P35968)
Sequence (P35968 whole entry): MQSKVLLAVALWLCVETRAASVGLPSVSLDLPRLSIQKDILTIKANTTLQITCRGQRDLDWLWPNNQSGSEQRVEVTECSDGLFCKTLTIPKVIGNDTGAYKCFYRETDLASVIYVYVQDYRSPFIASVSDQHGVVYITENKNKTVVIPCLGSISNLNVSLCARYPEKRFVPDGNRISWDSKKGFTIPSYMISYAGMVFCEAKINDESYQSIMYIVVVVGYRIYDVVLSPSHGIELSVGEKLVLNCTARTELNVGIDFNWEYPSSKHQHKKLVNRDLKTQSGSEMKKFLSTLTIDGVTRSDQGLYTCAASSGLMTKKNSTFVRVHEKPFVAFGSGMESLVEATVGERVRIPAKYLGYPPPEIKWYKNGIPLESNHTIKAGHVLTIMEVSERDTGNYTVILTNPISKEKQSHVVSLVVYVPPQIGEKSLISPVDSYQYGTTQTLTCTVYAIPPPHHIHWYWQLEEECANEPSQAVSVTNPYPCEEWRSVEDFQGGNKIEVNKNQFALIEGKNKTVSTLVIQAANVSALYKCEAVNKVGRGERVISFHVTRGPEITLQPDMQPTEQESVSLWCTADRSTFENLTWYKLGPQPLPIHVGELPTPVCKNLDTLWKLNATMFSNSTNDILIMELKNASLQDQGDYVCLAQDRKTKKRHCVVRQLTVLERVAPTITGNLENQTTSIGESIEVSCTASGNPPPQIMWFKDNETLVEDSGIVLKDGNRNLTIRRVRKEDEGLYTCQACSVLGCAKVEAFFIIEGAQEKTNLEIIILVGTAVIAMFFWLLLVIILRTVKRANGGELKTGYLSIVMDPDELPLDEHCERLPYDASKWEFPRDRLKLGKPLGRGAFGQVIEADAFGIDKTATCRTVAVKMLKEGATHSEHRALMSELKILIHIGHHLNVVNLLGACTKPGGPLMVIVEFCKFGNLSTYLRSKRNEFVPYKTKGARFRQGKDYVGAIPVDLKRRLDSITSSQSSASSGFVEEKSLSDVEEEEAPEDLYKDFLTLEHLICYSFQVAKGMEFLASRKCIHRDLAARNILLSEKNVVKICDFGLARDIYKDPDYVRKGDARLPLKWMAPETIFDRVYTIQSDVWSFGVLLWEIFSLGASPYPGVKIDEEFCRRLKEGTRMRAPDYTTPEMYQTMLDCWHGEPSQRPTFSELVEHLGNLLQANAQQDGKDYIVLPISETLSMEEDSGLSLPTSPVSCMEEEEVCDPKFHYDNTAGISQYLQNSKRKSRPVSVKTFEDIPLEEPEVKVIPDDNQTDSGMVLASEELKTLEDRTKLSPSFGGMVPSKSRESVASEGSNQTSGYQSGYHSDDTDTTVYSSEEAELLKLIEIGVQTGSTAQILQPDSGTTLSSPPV
measuredAttribute: pIC50
Just the number, please; pIC50 means minus log10 of the concentration in mol/L.

Given the entry `O=S1(=O)N=C(NCc2ccc(OC(F)(F)F)cc2)Nc2cc(Cl)ccc21` , what pIC50 was observed with Vascular endothelial growth factor receptor 2 (Homo sapiens, UniProt P35968)?
3.85
